- Test Summary: small-molecule microarray binders of probe aNog, primary screen, biochemical, biotinylated probe, 635/667 nm fluorescence (AID 1115);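 note: probe is biotinylated aNog protein used at 0.15 µg/mL for 1 h at 4 C; z-score combines 667 nm fluorescence of each spot with its signal to noise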
- Experimental Setup: higher = more signal
Parameter Measured: composite z-score
Give bare numbers.

Consider the reported composite z-score for these compounds:
CCOC(=O)C[C@H]1[C@H](OC(=O)c2ccccc2-c2ccccc2)[C@@H](NC(=O)c2ccc(-c3ccccc3)cc2)c2cc(OCCCO)ccc2N1C(=O)Cc1ccc(OC)cc1 : -0.31
C#CCCCON=C1C[C@@H](O)[C@@H](O)[C@@H]2[C@@H]3C(=O)N(Cc4ccc5c(c4)OCO5)C(=O)[C@@H]3CC[C@H]12 : -0.326

Below: the item to evaluate.
Challenge: Note down composite z-score recorded for [N-]=[N+]=NCc1ccccc1C[C@]1(C(N)=O)N=C(c2ccc(OCCCO)cc2)O[C@H]1c1ccccc1CN=[N+]=[N-]
Response given: 0.653

Measured values drawn from PubChem BioAssay for this set.
